protocolNotes: Quantitative High-Throughput drug screen in 47 multiple myeloma cell lines against the NCATS MIPE library collection: SKMM1_PLB cell viability assay (AID 1919863); further: potency means the concentration at half of the fitted maximal effect; nearly all actives have a fitted effect of over 35% in size
measurementConditions: SKMM1 myeloma viability, CellTiter-Glo ATP, 48 h
Text: PI: Beverly A. Mock Ph.D. Laboratory of Cancer Biology and Genetics, Center for Cancer Research, National Cancer Institute, National Institute of Health, Bethesda, Maryland […] 5; Detector; 425V; Luminescence; Viewlux PerkinElmer. […] 1. […] Briefly, the corresponding myeloma cell lines were screened in 1,536-well plates with 500 cells, 5-uL per well for inhibition of cell viability (assessed by measuring ATP levels with CellTiterGlo). […]
Results filed as inconclusive are left out. Active and inactive are the calls of the source. The call rests on the fitted dose curve; in most records, active means well fitted cell-killing curve with a large enough effect; inconclusive means small, poorly fitted or top-dose-only effect, or effect the other way; inactive means no such curve, though single readings can be large or run the other way.
measuredProperty: Potency

1. Cc1cc(SCc2sc(-c3ccc(C(F)(F)F)cc3)nc2C)ccc1OCC(=O)O = 16600 nM (active)
2. Cc1c(CN2CCN(C(=O)C(C)C)CC2)sc2c(N3CCOCC3)nc(-c3cnc(N)nc3)nc12 = 148 nM (active)
3. COc1cccc2cc(-c3nc(C4CCC(C(=O)O)CC4)n4ncnc(N)c34)[nH]c12 (stereo not drawn) = 1870 nM (active)

Numbers sourced from PubChem BioAssay (NCATS).
